target: NL20 human bronchial epithelial cells expressing human Z-AAT (Homo sapiens, UniProt P01009, E366K); experiment: AAT Function Assay (MSD Assay NL20-SI Cell Line); settings: functionally active AAT in supernatant of NL20 cells expressing human Z-AAT, complex with hNE, MSD readout; read-out: NL20 Functional EC50
Sequence (P01009 25-418 E366K): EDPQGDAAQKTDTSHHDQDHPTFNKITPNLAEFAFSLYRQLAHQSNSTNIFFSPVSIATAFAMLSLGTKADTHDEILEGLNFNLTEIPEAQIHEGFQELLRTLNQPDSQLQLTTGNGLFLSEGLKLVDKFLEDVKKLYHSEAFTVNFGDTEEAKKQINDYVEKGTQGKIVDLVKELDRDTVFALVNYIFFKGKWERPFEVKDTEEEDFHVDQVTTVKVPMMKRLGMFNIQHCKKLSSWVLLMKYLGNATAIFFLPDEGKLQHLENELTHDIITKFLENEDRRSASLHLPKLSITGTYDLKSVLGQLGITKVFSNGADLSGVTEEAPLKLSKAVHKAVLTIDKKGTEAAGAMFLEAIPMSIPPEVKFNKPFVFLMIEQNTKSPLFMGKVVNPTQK
VALUE TYPE: EC50

# count of solved cases: 5
>>> df
                                   molecule  value_type  test_result
0  CC1(C)COC(C)(c2cccc(C(=O)O)c2)c2c1n(-c1ccc(F)c(F)c1)c1cc(F)cc(O)c21 (racemic) [Compound 68]        EC50     < 1.2 µM
1  CC1(C)COC(C)(c2ccc(C(=O)O)s2)c2c1n(-c1ccc(F)c(F)c1)c1cc(F)cc(O)c21 (centres unmarked)        EC50     < 1.2 µM
2  CC1(C)COC2(CCC(C(=O)O)OC2)c2c1n(-c1ccc(F)cc1)c1cccc(O)c21 (centres unmarked) [Compound 140]        EC50       > 3 µM
3  CC1(C)CO[C@]2(CC[C@@H](C(=O)O)CC2)c2c1n(-c1ccc(F)c(F)c1)c1cccc(O)c12        EC50     < 1.2 µM
4  CC1(C)COC2(CCOC(C(=O)O)C2)c2c1n(-c1ccc(F)c(F)c1)c1cccc(O)c21 (centres unmarked)        EC50       > 3 µM

Item Cc1cc(-n2c3c(c4c(O)cccc42)C2(CC4(CC(C(=O)O)C4)C2)OCC3(C)C)ccc1F (single isomer, unassigned) [Compound 20] : provide EC50 > 3 µM

Item CC1(C)OCC(C)(c2ccc(C(=O)O)s2)c2c1n(-c1ccc(F)cc1)c1cccc(O)c21 (centres unmarked) [Compound 197] : provide EC50 1.2 to 3 µM

Item CC1(C)CO[C@]2(CC[C@](C(=O)O)(C(F)F)CC2)c2c1n(-c1ccc(F)cc1)c1cccc(O)c12 : provide EC50 < 1.2 µM
